Each entry below lists one item and its recorded Ki value.
Target: recombinant human ALK5 (TGF-βR1) protein (Homo sapiens)
Construct: purchased Life Technologies PR9075A
Experiment: Biochemical ALK5 (TGF-βR1) assay to measure pKi (LANCE Ultra ULight kinase assay)
Settings: apparent pKi from pIC50 by Cheng-Prusoff, read-out: ALK5 pKi (converted)

Note to self: Ki recorded for Cc1cccc(-c2n[nH]cc2-c2ccc3ncc(-c4nc(CN5CCN(C(C)C)CC5)co4)cc3n2)n1 [Compound 246] was 0.0398 to 0.316 nM

What the record says about Cc1cccc(-c2n[nH]cc2-c2ccc3ncc(NC(=O)CCN4CCOCC4)cc3n2)n1 [Compound 286] : Ki is 0.0398 to 0.316 nM

// Ki lookup, compound = Cc1cccc(-c2n[nH]cc2-c2ccc3ncc(N4CCC5NCCC5C4)cc3n2)n1 (centres unmarked) [Compound 151] , result: 0.0398 to 0.316 nM

Item: Cc1cccc(-c2[nH]ncc2-c2ccc3ncc(C(=O)O[C@H]4C[C@H](N)C4)cc3c2)n1 [Compound 1181] | Ki: 0.0398 to 0.316 nM

For record Cc1nc(-c2nc3ccccn3c2-c2ccc3ncc(-c4cnc5n4CCNC5)cc3n2)ccc1F [Compound 560] the listed Ki is 0.0398 to 0.316 nM

Notebook: COc1ccc(-c2cnc3ccc(-c4c[nH]nc4-c4cccc(C)n4)nc3c2)cn1 [Compound 420] , Ki read as < 0.0316 nM

// sample Cc1cccc(-c2n[nH]cc2-c2ccc3ncc(-c4ncn5c4NCC5)cc3n2)n1 [Compound 445] , its Ki was 0.0398 to 0.316 nM

Consider the record given below.
The compound listed as Cc1cccc(-c2[nH]cnc2-c2ccc3ncc(-c4cn[nH]c4)cc3n2)n1 [Compound 644] has a reported Ki of < 0.0316 nM

* * *

Target: recombinant human ALK5 (TGF-βR1) protein (Homo sapiens)
Construct: purchased Life Technologies PR9075A
Sequence (P36897 34-503): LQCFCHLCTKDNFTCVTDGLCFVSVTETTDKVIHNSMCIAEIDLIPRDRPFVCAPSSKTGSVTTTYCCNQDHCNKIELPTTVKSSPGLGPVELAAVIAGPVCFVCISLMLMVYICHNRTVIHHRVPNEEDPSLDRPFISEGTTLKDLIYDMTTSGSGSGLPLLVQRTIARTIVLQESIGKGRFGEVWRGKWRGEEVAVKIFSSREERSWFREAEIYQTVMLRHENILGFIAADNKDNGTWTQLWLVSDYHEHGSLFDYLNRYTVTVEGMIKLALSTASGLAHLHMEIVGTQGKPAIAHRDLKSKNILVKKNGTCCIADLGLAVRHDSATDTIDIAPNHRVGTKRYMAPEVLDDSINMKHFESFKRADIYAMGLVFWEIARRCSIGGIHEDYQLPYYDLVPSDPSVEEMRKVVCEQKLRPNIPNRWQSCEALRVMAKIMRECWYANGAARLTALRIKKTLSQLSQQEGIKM
Test: Biochemical ALK5 (TGF-βR1) assay to measure pKi (LANCE Ultra ULight kinase assay)
Conditions: apparent pKi from pIC50 by Cheng-Prusoff, read-out: ALK5 pKi (converted)
observation.type: Ki

See these solved cases before continuing.
In plain terms, Cc1cccc(-c2n[nH]cc2-c2ccc3ncc(N4CCn5nc(C6=CCC(N)CC6)nc5C4)cc3n2)n1 (stereo not drawn) [Compound 268] has a documented Ki of 0.0398 to 0.316 nM

Item: Cc1cccc(-c2n[nH]cc2-c2ccc3nccc(C(=O)NCCCC[C@H](NC(=O)[C@@H](C)N)C(=O)O)c3n2)n1 (racemic) [Compound 804] | Ki: 0.398 to 3.16 nM

Quick note, Ki for Cc1cccc(-c2[nH]cnc2-c2ccc3ncc(-c4nccc(C(=O)OCC5CNC5)n4)cc3c2)n1 [Compound 1098] landed at 0.0398 to 0.316 nM

More entries:
GET /value?item= Cc1nc(-c2n[nH]cc2-c2ccc3ncc(N4CCC(N)C4)cc3n2)ccc1F (stereo not drawn) [Compound 334] &field=Ki returns 0.0398 to 0.316 nM

Kindly note the recorded Ki for CCOC(=O)c1c(-c2cccc(F)c2)cnc2ccc(-c3c[nH]nc3-c3cccc(C)n3)nc12 [Compound 859] , which is 0.398 to 3.16 nM

molecule Cc1cccc(-c2[nH]cnc2-c2ccc3ncc(NCCC4CCNCC4)cc3c2)n1 [Compound 496] , Ki observed: 0.0398 to 0.316 nM

Noted for Cc1cccc(-c2n[nH]cc2-c2ccc3nccc(C(=O)NCCCCCCNC(=O)[C@@H]4CCCN4C(=O)CN4CCOCC4)c3n2)n1 (racemic) [Compound 809] : its Ki reads 0.398 to 3.16 nM

Briefly, Ki measured for Cc1cccc(-c2[nH]cnc2-c2ccc3ncc(-c4cnc(C(=O)OC5CCNCC5)nc4)cc3c2)n1 [Compound 1131] : 0.0398 to 0.316 nM

Entry Cc1cccc(-c2n[nH]cc2-c2ccc3nccc(N(C)CCN4CCOCC4)c3n2)n1 [Compound 831] , Ki reported as 0.0398 to 0.316 nM

Form field Ki, entry Cc1cccc(-c2[nH]cnc2-c2ccc3ncc(C(=O)O[C@@H]4CCNC4)cc3c2)n1 [Compound 1149] : 0.398 to 3.16 nM

Entry Cc1cccc(-c2n[nH]cc2-c2ccc3ncc(N4CCC(N)CC4)cc3n2)n1 [Compound 316] ; Ki = < 0.0316 nM
